# Tested on: Trichoderma virens ATCC 9645
# measurement-description: growth yield (OD600) relative to untreated control; higher = less growth inhibition
# experimental-context: compound concentration: 100 uM; 72 h
Structures can show the parent of a compound that is named as a salt. Out of some 1,300 compounds screened, about 75 (6%) showed an effect of 50% or more. The list comes from a sample in which strong results are over-represented; it also holds close analogues and randomly drawn compounds.
Here, each record is paired with measured growth yield data.
// units = %; emit number, no label

CC1(C)O[C@@H]2C[C@H]3[C@@H]4CCC5=CC(=O)C=C[C@]5(C)[C@H]4[C@@H](O)C[C@]3(C)[C@]2(C(=O)CO)O1 [Desonide] ... 98.7
Clc1ccc(C(Cn2ccnc2)OCc2csc3c(Cl)cccc23)c(Cl)c1 (stereo not drawn) [Sertaconazole nitrate] ... 2.73
OC(CNCC(O)C1CCc2cc(F)ccc2O1)C1CCc2cc(F)ccc2O1 (stereo not drawn) [Nebivolol hydrochloride] ... 114
Clc1ccc(COC(Cn2ccnc2)c2ccc(Cl)cc2Cl)cc1 (stereo not drawn) [Econazole nitrate] ... 1.78
C=CCOC(Cn1ccnc1)c1ccc(Cl)cc1Cl (stereo not drawn) ... 3.04

# growth yield (compound: CN(C)C(=N)NC(=N)N [Metformin hydrochloride] ) is 103

# growth yield (compound: CC(=C(CCO)SSCC1CCCO1)N(C=O)Cc1cnc(C)nc1N (stereo in doubt) [Fursultiamine Hydrochloride] ) is 101

# growth yield (compound: Clc1ccc(C(Cn2ccnc2)OCc2ccsc2Cl)c(Cl)c1 (stereo not drawn) ) is 1.89
